- target.under.test: angiotensin converting enzyme = ACE (Oryctolagus cuniculus, UniProt P12822)
- Sequence (P12822 34-1310): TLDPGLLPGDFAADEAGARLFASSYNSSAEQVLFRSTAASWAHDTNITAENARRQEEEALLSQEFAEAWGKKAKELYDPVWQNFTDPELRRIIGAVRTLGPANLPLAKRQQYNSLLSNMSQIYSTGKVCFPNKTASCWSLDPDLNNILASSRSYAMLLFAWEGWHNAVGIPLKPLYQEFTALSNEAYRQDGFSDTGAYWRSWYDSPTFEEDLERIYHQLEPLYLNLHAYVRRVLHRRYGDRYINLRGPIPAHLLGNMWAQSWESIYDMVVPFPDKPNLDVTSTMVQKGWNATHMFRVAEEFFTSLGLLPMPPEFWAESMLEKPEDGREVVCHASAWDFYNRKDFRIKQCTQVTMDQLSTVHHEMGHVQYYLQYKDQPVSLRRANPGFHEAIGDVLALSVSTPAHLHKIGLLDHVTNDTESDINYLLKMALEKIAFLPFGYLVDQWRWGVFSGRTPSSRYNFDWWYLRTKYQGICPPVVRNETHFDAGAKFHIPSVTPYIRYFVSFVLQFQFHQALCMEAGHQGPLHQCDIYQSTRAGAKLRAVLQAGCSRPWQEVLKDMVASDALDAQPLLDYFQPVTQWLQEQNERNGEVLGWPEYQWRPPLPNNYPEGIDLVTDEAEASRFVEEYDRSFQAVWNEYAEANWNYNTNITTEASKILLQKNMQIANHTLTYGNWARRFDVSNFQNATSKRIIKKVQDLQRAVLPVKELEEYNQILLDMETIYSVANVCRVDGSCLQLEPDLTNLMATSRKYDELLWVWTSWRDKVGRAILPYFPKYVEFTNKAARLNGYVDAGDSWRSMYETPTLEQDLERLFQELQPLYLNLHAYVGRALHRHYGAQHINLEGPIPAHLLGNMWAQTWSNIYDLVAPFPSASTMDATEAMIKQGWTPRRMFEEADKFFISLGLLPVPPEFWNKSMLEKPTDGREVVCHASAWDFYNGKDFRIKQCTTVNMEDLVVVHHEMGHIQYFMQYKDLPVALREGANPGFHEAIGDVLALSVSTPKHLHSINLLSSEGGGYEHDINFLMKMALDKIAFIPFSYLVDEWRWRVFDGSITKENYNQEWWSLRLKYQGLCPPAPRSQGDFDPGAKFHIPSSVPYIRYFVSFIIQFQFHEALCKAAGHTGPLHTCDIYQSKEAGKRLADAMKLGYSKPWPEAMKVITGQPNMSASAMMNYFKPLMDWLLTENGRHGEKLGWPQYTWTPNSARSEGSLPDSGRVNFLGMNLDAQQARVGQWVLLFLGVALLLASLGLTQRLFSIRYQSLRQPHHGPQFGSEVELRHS
measured.quantity: pIC50
Formally, pIC50 is defined as -log10 of the concentration c, with c in mol/L.

Form field: reported pIC50 of C[C@H](NC(Cc1ccccc1)C(=O)O)C(=O)N1c2ccccc2C[C@H]1C(=O)O (stereo partly shown) 7.52
